Test system: Candida albicans
experiment: Antifungal activity against Candida albicans MTCC 227 at 150 ug/ml by agar cup diffusion method
Format: functional
conditions: read-out: IZ
attributeMeasured: zone of inhibition at 150 µg/mL (mm)
Number in mm, nothing else.

Below, each entry is followed by its recorded zone of inhibition at 150 µg/mL result.
- molecule: "CC1(c2ccccc2)CCNc2c3c(C(F)(F)F)cc(-c4ccccc4)c(C#N)c3nn21 (stereo unspecified)"
  obsValue: 9
- molecule: "C=CC1(C)CCNc2c3c(C(F)(F)F)cc(-c4ccccc4)c(C#N)c3nn21 (stereo unspecified)"
  obsValue: 8
- molecule: "N#Cc1c(-c2ccccc2)cc(C(F)(F)F)c2c3n(nc12)[C@@]1(c2ccccc2)CCCC[C@H]1CN3"
  obsValue: 11
- molecule: "N#Cc1c(-c2ccccc2)cc(C(F)(F)F)c2c3n(nc12)[C@H]1C=CC[C@H]1CN3"
  obsValue: 9
- molecule: "N#Cc1c(C(F)(F)F)cc(-c2ccccc2)c2c3n(nc12)[C@H]1OCCC[C@H]1CN3"
  obsValue: 10

Read the next record carefully.
Given `N#Cc1c(-c2ccccc2)cc(C(F)(F)F)c2c3n(nc12)[C@H]1C=CCC[C@H]1CN3` , respond with its zone of inhibition at 150 µg/mL.
8
